Origin of measurements: BindingDB's records for doi:10.1016/s0960-894x(03)00136-7

Recorded IC50, one value per entry.
STUDY SYSTEM: Serine/threonine-protein phosphatase 2A catalytic subunit alpha (Homo sapiens)
ASSAY PROTOCOL: Inhibitory activity against protein phosphatase (PP2A) using fluorescein diphosphate as substrate

>  <SMILES STRING>
C=C([C@@H](O)C[C@H](O)[C@@]1(C)CC[C@H](C(C)(C)O)O1)[C@H]1CC[C@H]2O[C@@H]([C@]3(C)CC[C@@H](Br)C(C)(C)O3)CC[C@]2(C)O1

>  <IC50>
< 10 µM

$$$$
>  <SMILES STRING>
CC(C)(O)[C@H]1CC[C@](C)([C@@H](O)CC[C@](O)(CO)C2=CC[C@H]3O[C@@H]([C@]4(C)CC[C@@H](Br)C(C)(C)O4)CC[C@]3(C)O2)O1

>  <IC50>
< 10 µM

$$$$
